These data points were gathered from patent US10988477B2.

Target: GCN2 kinase (Homo sapiens)
Experiment: GCN2 enzyme inhibition assay (Transcreener ADP2 fluorescence polarization)
Assay type: biochemical
Settings: Enzyme activity for compounds of Formula IV; Ki(app), 280 μM ATP, 25° C.
pKi: −log10 of the molar value.
// values below are reported pKi

- OCC1CCCCN1c1ccnc(-c2cnc3cnc(C(F)(F)F)cn23)n1 (centres unmarked): 6.00 to 7.00

Give a short answer stating reported pKi for OC1CCN(c2ccnc(-c3cnc4cnc(C(F)(F)F)cn34)n2)CC1c1cn[nH]c1 (single isomer, unassigned) [IV-621] .
> 8.00

Give pKi for the following compound: COCC1CCCCN(c2ccnc(-c3cnc4cnc(C(F)(F)F)cn34)n2)C1 (centres unmarked)
6.00 to 7.00

Identify measured pKi corresponding to CC1CCCN(c2ccnc(-c3cnc4cnc(C(N)=O)cn34)n2)C1 (centres unmarked)
7.00 to 8.00

---

Molecular target: UniProt Q9P2K8
Test: GCN2 enzyme inhibition assay (Transcreener ADP2 fluorescence polarization)
Type: biochemical
Conditions: compounds of Formula II; 280 μM ATP, 4 nM GCN2 kinase
experimentalReadout: Ki

Some entries whose results are on file:
- CC1C(NS(C)(=O)=O)CCCN1c1cc(-c2cnc3ccc(C(F)F)nn23)ncn1 (single isomer, unassigned) [II-377]: 10 to 1000 nM
- CS(=O)(=O)NCC1CC(N2CC(F)C2)CN(c2cc(-c3cnc4ccc(C(F)F)nn34)ncn2)C1 (stereo not shown) [II-428]: 10 to 1000 nM
- CS(=O)(=O)N1CC2OCCN(c3cc(-c4cnc5ccc(C(F)F)nn45)ncn3)C2C1 (stereo not shown) [II-319]: 10 to 1000 nM
- CC1(C)CN(c2cc(-c3cnc4ccc(C(F)F)nn34)ncn2)C[C@H](CNS(C)(=O)=O)O1 [II-257]: 10 to 1000 nM
- CNS(=O)(=O)CC1CCCN(c2cc(-c3cnc4ccc(C(F)F)nn34)ncn2)C1 (stereo not shown) [II-236]: 10 to 1000 nM
- CCS(C)(=O)=NC1CC(C)CN(c2cc(-c3cnc4ccc(C(F)F)nn34)ncn2)C1 (single isomer, unassigned) [II-641]: 10 to 1000 nM
- CC1C(CNS(C)(=O)=O)C(F)(F)C(C)CN1c1cc(-c2cnc3ccc(C(F)F)nn23)ncn1 (stereo not shown) [II-462]: < 10 nM
- CC(=O)N1CCN(c2cc(-c3cnc4ccc(-c5cccnc5)nn34)ccn2)CC1 [II-737]: > 1000 nM
- NC(=O)c1cc(C2CCCN(c3cc(-c4cnc5ccc(C(F)F)nn45)ncn3)C2)n[nH]1 (stereo not shown) [II-205]: 10 to 1000 nM
- CC1CC(N=S(C)(=O)C2CC2)CN(c2cc(-c3cnc4ccc(C(F)F)nn34)ncn2)C1 (single isomer, unassigned) [II-646]: 10 to 1000 nM

Fill in: Ki on UniProt Q9P2K8, entry C[C@@H]1C[C@H](CS(C)(=N)=O)[C@H](C)N(c2cc(-c3cnc4ccc(C(F)F)nn34)ncn2)C1 (stereo partly shown) [II-606]
< 10 nM

Determine reported Ki for CS(=O)(=O)NCC1CN(c2cc(-c3cnc4ccc(C(F)F)nn34)ncn2)CCC1(F)F (single isomer, unassigned) [II-2] ; test system: UniProt Q9P2K8.
< 10 nM

Under UniProt Q9P2K8: report Ki of CC1CN(c2cc(-c3cnc4ccc(C(F)F)nn34)ncn2)CC(CO)O1 (stereo not shown) [II-616] .
10 to 1000 nM

State measured Ki of the compound OC[C@H]1CN(c2cc(-c3cnc4ccc(C(F)F)nn34)ncn2)C[C@@H](C(F)(F)F)O1 [II-298] with UniProt Q9P2K8.
10 to 1000 nM

Output reported Ki of the compound FC(F)c1ccc2ncc(-c3cc(N4CCCC(Cn5ccnn5)C4)ncn3)n2n1 (stereo not shown) [II-327] on UniProt Q9P2K8.
10 to 1000 nM

Report its Ki with UniProt Q9P2K8 as the test system: CNS(=O)(=O)NCC1CCCN(c2cc(-c3cnc4ccc(C(F)F)nn34)ncn2)C1 (stereo not shown) [II-385]
< 10 nM

---

Target: intracellular GCN2 (phosphorylation of the GCN2 substrate eIF2α) (Homo sapiens, UniProt Q9P2K8)
Sequence (Q9P2K8 whole entry): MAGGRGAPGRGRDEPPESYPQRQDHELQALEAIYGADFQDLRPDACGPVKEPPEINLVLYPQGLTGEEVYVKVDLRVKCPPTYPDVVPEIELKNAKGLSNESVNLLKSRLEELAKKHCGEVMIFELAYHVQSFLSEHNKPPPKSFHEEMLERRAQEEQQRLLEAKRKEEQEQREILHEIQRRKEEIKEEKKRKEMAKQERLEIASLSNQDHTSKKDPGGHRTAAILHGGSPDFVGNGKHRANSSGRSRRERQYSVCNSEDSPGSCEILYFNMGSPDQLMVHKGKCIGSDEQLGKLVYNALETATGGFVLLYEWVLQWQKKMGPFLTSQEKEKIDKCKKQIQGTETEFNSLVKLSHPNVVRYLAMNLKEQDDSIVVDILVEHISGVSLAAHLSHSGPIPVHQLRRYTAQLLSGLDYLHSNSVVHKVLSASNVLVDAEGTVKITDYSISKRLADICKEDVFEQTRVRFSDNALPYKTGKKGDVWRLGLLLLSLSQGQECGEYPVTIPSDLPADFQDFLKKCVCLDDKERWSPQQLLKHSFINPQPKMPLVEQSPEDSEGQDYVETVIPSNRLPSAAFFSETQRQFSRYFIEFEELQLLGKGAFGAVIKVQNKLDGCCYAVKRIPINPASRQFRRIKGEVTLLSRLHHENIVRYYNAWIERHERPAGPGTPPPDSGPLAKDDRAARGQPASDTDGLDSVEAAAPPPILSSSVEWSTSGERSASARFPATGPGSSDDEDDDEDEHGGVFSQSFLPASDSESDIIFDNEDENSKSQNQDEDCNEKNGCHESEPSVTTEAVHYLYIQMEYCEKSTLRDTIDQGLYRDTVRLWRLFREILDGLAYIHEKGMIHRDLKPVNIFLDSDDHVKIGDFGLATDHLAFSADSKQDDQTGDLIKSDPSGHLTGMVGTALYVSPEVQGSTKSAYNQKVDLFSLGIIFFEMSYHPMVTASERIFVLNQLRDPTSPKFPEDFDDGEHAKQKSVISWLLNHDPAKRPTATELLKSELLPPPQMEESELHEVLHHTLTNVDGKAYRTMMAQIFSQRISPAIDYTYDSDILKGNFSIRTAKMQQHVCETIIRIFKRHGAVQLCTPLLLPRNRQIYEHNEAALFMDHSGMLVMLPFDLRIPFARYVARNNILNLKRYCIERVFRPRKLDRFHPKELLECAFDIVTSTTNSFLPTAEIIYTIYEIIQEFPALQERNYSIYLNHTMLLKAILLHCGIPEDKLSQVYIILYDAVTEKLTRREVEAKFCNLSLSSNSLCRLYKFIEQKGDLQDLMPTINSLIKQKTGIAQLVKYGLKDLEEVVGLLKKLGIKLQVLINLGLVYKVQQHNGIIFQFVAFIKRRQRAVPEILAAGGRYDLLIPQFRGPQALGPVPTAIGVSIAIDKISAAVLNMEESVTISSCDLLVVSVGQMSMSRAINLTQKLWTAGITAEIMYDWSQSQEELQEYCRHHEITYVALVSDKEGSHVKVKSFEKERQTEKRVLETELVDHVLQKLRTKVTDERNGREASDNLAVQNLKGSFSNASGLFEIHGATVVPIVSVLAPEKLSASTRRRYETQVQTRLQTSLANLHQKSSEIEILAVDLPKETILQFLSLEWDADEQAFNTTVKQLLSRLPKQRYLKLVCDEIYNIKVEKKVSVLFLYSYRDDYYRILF
Assay: GCN2 cellular inhibition assay (AlphaScreen SureFire P-eIF2α Ser51, borrelidin-treated U2OS cells)
Assay type: cell-based
Settings: compounds of Formula II; biomarker assay, phosphorylated eIF2α Ser51 in borrelidin-treated U2OS cells
experimentalReadout: IC50

Worked examples, 3 compounds total:
* CS(=O)(=O)NCC1CCCN(c2cc(-c3cnc4ccc(C(F)F)nn34)ccn2)C1 (stereo not drawn) [II-157] | < 0.5 µM
* N=S1(=O)CCN(c2cc(-c3cnc4ccc(C(F)F)nn34)ncn2)CC1 [II-676] | > 5 µM
* CC1CC(C(N)=O)C(C)N(c2cc(-c3cnc4ccc(C(F)(F)F)nn34)ncn2)C1 (racemic) [II-719] | 0.5 to 5 µM

Using the record for CC1CC(N=S(C)(C)=O)CN(c2cc(-c3cnc4ccc(C(N)=O)nn34)ncn2)C1 (stereo not drawn) [II-726] , state its measured IC50.
> 5 µM

Note down IC50 recorded for CCS(=O)(=O)N[C@H]1CCCN(c2cc(-c3cnc4ccc(C(F)F)nn34)ncn2)C1 [II-421]
0.5 to 5 µM

Read off the recorded IC50 for O=S(=O)(N[C@H]1CCCN(c2cc(-c3cnc4ccc(C(F)F)nn34)ncn2)C1)C1CNC1 [II-435]
> 5 µM

Supply measured IC50 of CS(=O)(=O)NC[C@@H]1CN(c2cc(-c3cnc4ccc(C(F)(F)F)nn34)ccn2)CCO1 [II-224] in your reply.
0.5 to 5 µM

Kindly indicate its recorded IC50. Item: NS(=O)(=O)N1CC2(CN(c3cc(-c4cnc5ccc(C(F)F)nn45)ncn3)CCO2)C1 [II-334]
0.5 to 5 µM

Name the recorded IC50 of the item CC1(F)CCN(c2cc(-c3cnc4ccc(C(F)F)nn34)ncn2)CC1CNS(C)(=O)=O (single isomer, unassigned) [II-388] in your answer.
0.5 to 5 µM

---

pKi values, listed per item
Molecular target: GCN2 kinase (Homo sapiens, UniProt Q9P2K8)
Sequence (Q9P2K8 whole entry): as above
Experiment: GCN2 enzyme inhibition assay (Transcreener ADP2 fluorescence polarization)
Type: biochemical
Conditions: compounds of Formula II; 280 μM ATP, 4 nM GCN2 kinase
pKi: −log10 of the molar value.

* CC(=O)N1CCN(c2cc(-c3cnc4ccc(N5CCC(N)C5)nn34)ccn2)CC1 (centres unmarked) | < 6.00

With those in mind, consider the next molecule.
Identify pKi associated with the molecule CC1C(N=S(C)(C)=O)CCCN1c1cc(-c2cnc3ccc(C(F)F)nn23)ncn1 (single isomer, unassigned) [II-582]
< 6.00

---

Target: GCN2 kinase (Homo sapiens)
Test: GCN2 enzyme inhibition assay (Transcreener ADP2 fluorescence polarization)
Type: biochemical
Details: Enzyme activity for compounds of Formula IV; Ki(app), 280 μM ATP, 25° C.
pKi: −log10 of the molar value.
experimentalReadout: pKi

Completed entries (count: 3):
• CC1CN(c2ccnc(-c3cnc4cnc(Cl)cn34)n2)CC(c2cn[nH]c2)O1 (single isomer, unassigned) [IV-217] = > 8.00
• CC1CC(c2cn[nH]c2)C(C)N(c2ccnc(-c3cnc4cnc(C(F)(F)F)cn34)n2)C1 (single isomer, unassigned) [IV-310] = 7.00 to 8.00
• CC(=O)NC1CCN(c2ccnc(-c3cnc4cnc(C(F)(F)F)cn34)n2)C1 (stereo not shown) = 6.00 to 7.00

Now take the following compound into account.
Give reported pKi value for FC(F)(F)c1cn2c(-c3nccc(N4CCCC4Cc4ccccc4)n3)cnc2cn1 (stereo not shown)
6.00 to 7.00

---

// reported pKi for each item listed
Biological target: GCN2 kinase (Homo sapiens)
Assay: GCN2 enzyme inhibition assay (Transcreener ADP2 fluorescence polarization)
Format: biochemical
Conditions: compounds of Formula II; 280 μM ATP, 4 nM GCN2 kinase
pKi: −log10 of the molar value.

Record excerpt, results attached:
• CS(=O)(=O)NCC1CCCN(c2ccnc(-c3cnc4ccc(C(F)F)nn34)c2)C1 (stereo not drawn) = > 8.00
• CS(=O)(=O)NCC1CCCN(c2cc(-c3cnc4ccc(C(F)F)nn34)cc(O)n2)C1 (stereo not drawn) = > 8.00
• CC1C(CS(C)(=N)=O)CCCN1c1cc(-c2cnc3ccc(C(F)F)nn23)ncn1 (stereo not drawn) [II-488] = 6.00 to 8.00

Complete the entry with pKi for OCCC1CCCN(c2cc(-c3cnc4ccc(C(F)(F)F)nn34)ncn2)C1 (stereo not drawn)
6.00 to 8.00

Tell me pKi reported for N#CCC1CN(c2cc(-c3cnc4ccc(C(F)F)nn34)ncn2)CCO1 (stereo not drawn) [II-512]
6.00 to 8.00

Please look at this molecule and report its pKi: CC1C(CS(C)(=N)=O)OCCN1c1cc(-c2cnc3ccc(C(F)F)nn23)ncn1 (stereo not drawn)
6.00 to 8.00

Please indicate pKi recorded for `NC(=O)[C@H]1CCCN(c2cc(-c3cnc4ccc(C(F)F)nn34)ccn2)C1`
> 8.00

Return the recorded pKi value; entry: N#CC1CCCN(c2cc(-c3cnc4ccc(C(F)(F)F)nn34)ncn2)C1 (stereo not drawn)
6.00 to 8.00

Identify measured pKi corresponding to CS(=O)(=O)NCC1CN(c2cc(-c3cnc4ccc(C(F)F)nn34)ncn2)CC(F)(F)C1 (stereo not drawn)
> 8.00
